experiment: Therapeutic index, ratio of MCC50 for human HeLa cells to MIC for inhibition of flavodoxin in clarithromycin/metronidazole-resistant Helicobacter pylori isolate 4 assessed as reduction in bacterial growth; type: toxicity; settings: read-out: TI
What selectivity ratio was measured for each of the following?
Response field accepts a number only; no unit should be typed.

Note to self: selectivity ratio recorded for O=[N+]([O-])CCc1cc(C(F)(F)F)cc(C(F)(F)F)c1 was 9

Note to self: selectivity ratio recorded for O=[N+]([O-])CCc1ccccc1 was 605

Note to self: selectivity ratio recorded for COc1ccc(CS(=O)(=O)c2ccc(N)c3nonc23)cc1 was 20

Note to self: selectivity ratio recorded for COc1ccc(C[S+]([O-])c2ccc(N)c3nonc23)cc1 (stereo unspecified) was 9.5

Note to self: selectivity ratio recorded for COc1ccc(CSc2cc(Cl)c(N)c3nonc23)cc1 was 80

Note to self: selectivity ratio recorded for O/N=C/Cc1cc(C(F)(F)F)cc(C(F)(F)F)c1 was 34
